Data credit: patent US12404239B2

- assayed-target: BCL6 (Homo sapiens, UniProt P41182)
- Construct: HiBiT-tag knocked into endogenous BCL6 locus using CRISPR; endogenous in cells; host or cells: DHL-4_BCL6_HiBiT cells (CRISPR knock-in)
- test-details: BCL6_HiBiT degradation assay (2 h)
- Format: cell-based
- condition-notes: DHL-4_BCL6_HiBiT cells, read-out: YCon (% remaining maximal effect)
Item-by-item account of Percent BCL6 remaining at maximal degradation (Ycon)

// worked examples, Percent BCL6 remaining at maximal degradation (Ycon) included
{"columns": ["compound", "assayed-target", "reported"],
 "data": [
  ["C[C@@H]1CN(c2ncc(Cl)c(Nc3cnc4c(c3)CC(=O)N4C)n2)CC[C@H]1Nc1ccc2c(N3CCC(=O)NC3=O)nn(C)c2c1", "BCL6 (Homo sapiens, UniProt P41182)", "< 20%"],
  ["C[C@H]1C[C@H](Nc2ccc3c([C@@H]4CCC(=O)NC4=O)nn(C)c3c2)CCN1c1ncc(Cl)c(Nc2ccc3c(c2)CC(=O)N3C)n1 (single isomer, unassigned)", "BCL6 (Homo sapiens, UniProt P41182)", "20 to 60%"]
]}

// moving on: another record for Percent BCL6 remaining at maximal degradation (Ycon)
// query So what's the measured Percent BCL6 remaining at maximal degradation (Ycon) for this one? C[C@@H]1CN(c2ncc(Cl)c(Nc3ccc4c(c3)CC(=O)N4C)n2)CC[C@H]1Nc1ccc2c(C3(C)CCC(=O)NC3=O)nn(C)c2c1 (stereo partly drawn)
// result < 20%
